Entry source: patent US20230227466A1

Test system: MIA-PaCa-2 pancreatic cancer cell line (KRAS G12C)
Experiment: Cell proliferation assay (CellTiter 96 Aqueous One)
Assay type: cell-based
Settings: Homo sapiens, MIA PaCa-2, MIA PaCa-2
quantity-kind: IC50

1) CO[C@H]1CC[C@@H](Nc2nc(-c3nccn3C)nc3sc(-c4ccn(C(C)C)n4)c(-c4ccccc4)c23)C1 [Compound 5] = < 1 µM
2) COCCCNc1nc(-c2nccn2C)nc2sc(-c3ccn(C(C)C)n3)c(C)c12 [Compound 36] = < 1 µM

query: Notebook: pull reported IC50 for MIA-PaCa-2 pancreatic cancer cell line (KRAS G12C), entry O=C(Nc1ccccc1)c1nc(O)c2scc(-c3ccccn3)c2n1 [Compound 23]
result: > 10 µM

query: Notebook: pull reported IC50 for MIA-PaCa-2 pancreatic cancer cell line (KRAS G12C), entry COC1CCN(c2nc(-c3nccn3C)nc3sc(-c4ccn(C(C)C)n4)c(C)c23)C1 (racemic) [Compound 34]
result: 1 to 4.99 µM

query: Notebook: pull reported IC50 for MIA-PaCa-2 pancreatic cancer cell line (KRAS G12C), entry CO[C@H]1CC[C@@H](Nc2nc(-c3nccn3C)nc3sc(-c4cc[nH]n4)c(-c4ccccc4)c23)C1 (racemic) [Example 1]
result: > 10 µM

query: Notebook: pull reported IC50 for MIA-PaCa-2 pancreatic cancer cell line (KRAS G12C), entry CO[C@H]1CC[C@@H](Nc2nc(-c3nccn3C)nc3sccc23)C1 (racemic) [Compound 10]
result: > 10 µM

query: Notebook: pull reported IC50 for MIA-PaCa-2 pancreatic cancer cell line (KRAS G12C), entry Cc1c(-c2ccn(C(C)C)n2)sc2nc(-c3nccn3C)nc(N3CCC(COC(C)C)C3)c12 (racemic) [Compound 62]
result: < 1 µM

query: Notebook: pull reported IC50 for MIA-PaCa-2 pancreatic cancer cell line (KRAS G12C), entry CO[C@H]1C[C@@H](Nc2nc(-c3nccn3C)nc3sc(-c4ccn(C(C)C)n4)c(C)c23)C1 [Compound 96]
result: > 10 µM

query: Notebook: pull reported IC50 for MIA-PaCa-2 pancreatic cancer cell line (KRAS G12C), entry COCCNC(=O)c1nc(N[C@@H]2CC[C@H](OC)C2)c2ccsc2n1 (racemic) [Compound 14]
result: > 10 µM

----------
Experiment: Kinetic solubility assay
Format: physicochemical
Settings: phosphate-buffered saline pH 7.4 with 2% DMSO, aqueous buffer, kinetic from dmso stock; pH 7.4 PBS + 2% DMSO, 25° C., two hours; effective range approximately 2-400 μM
quantity-kind: solubility kinetic at 2 h (µM)

1) COc1cc(Nc2nc(-c3nccn3C)nc3sc(-c4ccn(C(C)C)n4)c(C)c23)ncn1 [Compound 66] = 4

(A) CO[C@@H]1CC[C@H](Nc2nc(-c3nccn3C)nc3sc(-c4ccn(C(C)C)n4)c(-c4ccccc4)c23)C1 [Example 4]
(B) COC1CCCN(c2nc(-c3nccn3C)nc3sc(-c4ccn(C(C)C)n4)c(C)c23)C1 (racemic) [Compound 40]
query: Lab notebook, comparison: A versus B , higher solubility kinetic at 2 h goes to which? Answer format: the label of the selected item.
result: B

----------
This listing pairs compounds with measured inhibition at 20 µM.
Target: KRas G12D mutant (Homo sapiens, UniProt P01116, G12D)
Construct: made in house
Assay: Ras GTP binding domain inhibition assay (labeled-GTP competition, cell-free)
Details: with SOS, read-out: KRas G12D mutant + SOS: % inh.

Example results:
1. COCC1CCN(c2nc(-c3ccccn3)nc3sc(-c4ccn(C(C)C)n4)c(C)c23)C1 (racemic) [Compound 71] = 1 to 25%
2. CO[C@H]1C[C@@H](CNc2nc(-c3nccn3C)nc3sc(-c4ccn(C(C)C)n4)c(C)c23)C1 [Compound 47] = 51 to 75%
3. CO[C@H]1CC[C@@H](Nc2nc(-c3nccn3C)nc3sc(-c4ccn(C(C)C)n4)c(C)c23)C1 [Compound 32] = 76 to 100%
4. CO[C@H]1CC[C@@H](Nc2nc(C(=O)Nc3ccccc3)nc3sccc23)C1 (racemic) [Compound 15] = 0%
5. COc1cccc(Nc2nc(-c3nccn3C)nc3sc(-c4ccn(C(C)C)n4)c(C)c23)n1.Cl [Compound 65, hydrochloride salt] = 51 to 75%
6. Oc1nc(-c2nccn2CCOCC(F)(F)F)nc2c(-c3ccccn3)csc12 [Compound 81] = 76 to 100%
7. COCC1CN(c2nc(-c3nccn3C)nc3sc(-c4ccn(C(C)C)n4)c(C)c23)CCO1 (racemic) [Compound 45] = 76 to 100%
8. CO[C@H]1CC[C@H](Nc2nc(-c3nccn3C)nc3sc(-c4ccn(C(C)C)n4)c(C)c23)CC1 [Compound 54] = 76 to 100%

Now for the compound whose inhibition at 20 µM we want.
query: I am curious: what inhibition at 20 µM value has been reported for COC1CCCN(c2nc(-c3ccccn3)nc3sc(-c4ccn(C(C)C)n4)c(C)c23)C1 (racemic) [Compound 70] ?
result: 26 to 50%
